- TARGET_OR_SYSTEM: CFTR (Homo sapiens, UniProt P13569, DEL508-508)
- Construct: endogenous in cells; host or cells: primary human bronchial epithelial cells from CF subjects (F508del/MF-HBE), differentiated at air-liquid interface
- Sequence (P13569 with tags, fused parts or gaps DEL508-508): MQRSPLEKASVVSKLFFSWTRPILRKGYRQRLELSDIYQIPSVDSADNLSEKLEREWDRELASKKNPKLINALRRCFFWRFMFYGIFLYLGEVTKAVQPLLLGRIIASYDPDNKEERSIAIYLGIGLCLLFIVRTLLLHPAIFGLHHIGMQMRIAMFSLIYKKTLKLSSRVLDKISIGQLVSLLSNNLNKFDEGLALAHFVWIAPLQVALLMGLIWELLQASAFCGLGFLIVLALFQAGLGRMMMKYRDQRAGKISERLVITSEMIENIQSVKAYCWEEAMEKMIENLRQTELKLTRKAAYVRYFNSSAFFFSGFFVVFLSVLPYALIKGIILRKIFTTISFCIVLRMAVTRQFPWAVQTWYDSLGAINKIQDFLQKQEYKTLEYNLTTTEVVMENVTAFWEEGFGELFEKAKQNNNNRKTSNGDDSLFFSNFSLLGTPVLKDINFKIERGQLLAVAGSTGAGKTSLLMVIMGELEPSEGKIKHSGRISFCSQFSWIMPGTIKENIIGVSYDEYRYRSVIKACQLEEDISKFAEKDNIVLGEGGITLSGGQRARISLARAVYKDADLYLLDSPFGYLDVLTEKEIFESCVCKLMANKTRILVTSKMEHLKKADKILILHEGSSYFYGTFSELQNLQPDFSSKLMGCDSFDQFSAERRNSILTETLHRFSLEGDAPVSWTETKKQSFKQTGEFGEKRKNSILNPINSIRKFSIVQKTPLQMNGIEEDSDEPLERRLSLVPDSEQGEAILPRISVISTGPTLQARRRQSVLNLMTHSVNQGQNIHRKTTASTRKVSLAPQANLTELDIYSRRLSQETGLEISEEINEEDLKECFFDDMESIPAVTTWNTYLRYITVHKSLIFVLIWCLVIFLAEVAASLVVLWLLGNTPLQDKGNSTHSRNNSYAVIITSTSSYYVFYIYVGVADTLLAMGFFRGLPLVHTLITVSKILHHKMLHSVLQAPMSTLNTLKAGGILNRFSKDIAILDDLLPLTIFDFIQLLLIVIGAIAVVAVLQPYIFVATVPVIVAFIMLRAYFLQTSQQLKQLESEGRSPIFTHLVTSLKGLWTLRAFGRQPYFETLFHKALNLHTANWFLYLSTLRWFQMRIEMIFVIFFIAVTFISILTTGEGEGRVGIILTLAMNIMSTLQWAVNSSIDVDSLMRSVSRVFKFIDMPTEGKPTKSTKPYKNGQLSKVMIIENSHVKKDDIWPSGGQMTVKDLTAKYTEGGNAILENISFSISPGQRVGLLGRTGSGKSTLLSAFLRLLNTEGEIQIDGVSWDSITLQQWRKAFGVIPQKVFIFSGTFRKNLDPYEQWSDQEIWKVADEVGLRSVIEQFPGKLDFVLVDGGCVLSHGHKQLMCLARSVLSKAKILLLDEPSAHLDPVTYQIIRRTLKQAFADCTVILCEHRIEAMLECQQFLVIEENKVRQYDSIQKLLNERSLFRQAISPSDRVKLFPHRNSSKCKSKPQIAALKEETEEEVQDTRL
- ASSAY_TEXT: HBE2 assay: Ussing chamber assay of CFTR-mediated short-circuit currents
- Assay type: cell-based
- CONDITION_CONTEXT: 3 μM corrector; F508del/MF-HBE cells; with 44 nM potentiator, 18-24 hours, 20% human serum
PROPERTY_LABEL: HBE2 Activity at 3 μM (%)

INSERT INTO results (compound, target_or_system, value_reported) VALUES
  ('Cc1cccc(C)c1-c1cc2nc(n1)NS(=O)(=O)c1cccc(c1)C(=O)N(Cc1cncc(N3CC[C@H]3C)n1)[C@H](CC1CCCCC1)CO2 [Compound 1823]', 'CFTR (Homo sapiens, UniProt P13569, DEL508-508)', '+++ (+++ is >60+)'),
  ('Cc1cccc(C)c1-c1cc2nc(n1)NS(=O)(=O)c1cccc(c1)C(=O)N(Cc1cncc(N3CCC[C@H]3C3CC3)n1)[C@H](CCC(C)(C)C)CO2 [Compound 1813]', 'CFTR (Homo sapiens, UniProt P13569, DEL508-508)', '+++ (+++ is >60+)'),
  ('Cc1cccc(C)c1-c1cc2nc(n1)NS(=O)(=O)c1cccc(c1)C(=O)N(Cc1cncc(N(C)[C@H]3CC[C@@H]3C)n1)[C@H](CC(C)(C)C)CO2 (stereo in doubt) [Compound 1773]', 'CFTR (Homo sapiens, UniProt P13569, DEL508-508)', '+++ (+++ is >60+)');

###

- TARGET_OR_SYSTEM: UniProtKB P13569
- ASSAY_TEXT: Membrane potential dye, Enteroid Assay A
- Type: cell-based
- CONDITION_CONTEXT: Table 7; chloride transport as % of triple combination control (Enteroid Assay A)
PROPERTY_LABEL: Ent. A Max Activity

INSERT INTO results (compound, property_label, value_reported) VALUES
  ('Cc1cccc(C)c1-c1cc2nc(n1)NS(=O)(=O)c1cccc(c1)C(=O)N(CCC1CCOCC1)[C@H](CC(F)(F)F)CO2 [Compound 983]', 'Ent. A Max Activity', '++ (++ is 30-60%)'),
  ('Cc1cccc(C)c1-c1cc2nc(n1)NS(=O)(=O)c1cccc(c1)C(=O)N(Cc1ccc(N3CCC(F)CC3)nc1)[C@H](CC(C)C)CO2', 'Ent. A Max Activity', '+++ (+++ is >60%)'),
  ('Cc1cccc(C)c1-c1cc2nc(n1)NS(=O)(=O)c1cccc(c1)CN(Cc1cccc3c1OC(F)(F)O3)[C@H](CC(C)C)CO2', 'Ent. A Max Activity', '++ (++ is 30-60%)'),
  ('Cc1cccc(C)c1-c1cc2nc(n1)NS(=O)(=O)c1cccc(c1)CN(Cc1ccnnc1)[C@H](CC(C)C)CO2', 'Ent. A Max Activity', '+++ (+++ is >60%)'),
  ('Cc1cccc(C)c1-c1cc2nc(n1)NS(=O)(=O)c1cccc(c1)C(=O)N(C)[C@H](c1ccc(C(C)(C)C)cc1)CO2 [Compound 1011]', 'Ent. A Max Activity', '+++ (+++ is >60%)');

Please examine the following record next.
Could you tell me which Ent. A Max Activity is on file for Cc1cccc(C)c1-c1cc2nc(n1)NS(=O)(=O)c1cccc(c1)C(=O)N(CCC1CCOCC1)[C@H](CC1(C(F)(F)F)CC1)CO2 [Compound 681] ?
+++ (+++ is >60%)
